- TARGET_SYSTEM: human APJ (Homo sapiens, UniProt P35414)
- Sequence (P35414 whole entry): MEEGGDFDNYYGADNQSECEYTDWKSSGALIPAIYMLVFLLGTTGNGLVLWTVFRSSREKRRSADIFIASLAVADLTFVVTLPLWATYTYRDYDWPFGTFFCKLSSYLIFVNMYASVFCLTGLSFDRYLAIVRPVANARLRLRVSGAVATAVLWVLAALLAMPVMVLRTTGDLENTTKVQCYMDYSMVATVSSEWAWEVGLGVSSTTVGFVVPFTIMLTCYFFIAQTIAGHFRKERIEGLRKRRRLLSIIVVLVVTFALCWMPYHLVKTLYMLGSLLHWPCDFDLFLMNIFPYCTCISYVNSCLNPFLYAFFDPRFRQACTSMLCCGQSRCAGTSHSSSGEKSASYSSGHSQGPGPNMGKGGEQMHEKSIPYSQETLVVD
- PROTOCOL_NOTES: cAMP inhibition assay, HEK293 ZF cells
OBSERVABLE: EC50 (nM)
Write the value in nM as a bare number.

Quickly give me recorded EC50 for CCOCc1nc(O)c(-c2nnc(Cc3ccc(Cl)cn3)o2)c(O)c1-c1c(OC)cccc1OC [BMS-986224]
0.02

* * *

- PROTOCOL_NOTES: Plasma concentrations of BMS-986224 in the RHR studies
- Format: in vivo, rat
- SETTINGS: oral 1 mg/kg BID
OBSERVABLE: area under the plasma drug concentration−time curve (0–24) (µM·h)
Write the value in µM·h as a bare number.

Quickly give me recorded area under the plasma drug concentration−time curve (0–24) for CCOCc1nc(O)c(-c2nnc(Cc3ccc(Cl)cn3)o2)c(O)c1-c1c(OC)cccc1OC [BMS-986224]
34.3

Recorded values, source paper PMC7982131.
